These measurements were taken from patent US8637038B2.

Listed below: EC50 values for each entry.
- Tested on: JAK1/3
- Assay info: IL-2 T cell phospho-STAT5
- Assay type: cell-based
- Experimental context: Homo sapiens, read-out: EC50, JAK1/3-dependent Stat5 phosphorylation in response to IL-2

| Compound structure | EC50, nM |
| --- | --- |
| COc1cc(Nc2ncc(C)c(Nc3ccc4oc(=O)[nH]c4c3)n2)cc(C)c1F | 21 |
| COc1cc(Nc2ncc(C)c(Nc3ccc4oc(=O)[nH]c4c3)n2)cc(C)c1C | 35 |

----------
- System: Syk
- Assay info: IgE CHMC tryptase release
- Assay type: cell-based
- Experimental context: Homo sapiens, read-out: IgE CHMC tryptase EC50
pEC50: −log10 of the molar value.

| Compound structure | Assayed target | pEC50 |
| --- | --- | --- |
| COc1cc(Nc2ncc(C)c(Nc3ccc4oc(=O)[nH]c4c3)n2)cc(C)c1C | Syk | 6.42 |
